Reference source: PubChem BioAssay

TARGET UNDER TEST: Calmodulin-1 (Homo sapiens)
METHOD: CALM1 binders on microarrays, EGTA buffer, profiling panel, biochemical, small-molecule microarray, Cy5-labelled CALM1 (AID 1111);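 also: labelled calmodulin applied in Tris saline Tween buffer holding calcium plus EGTA and DTT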
TEST CONTEXT: Cy5-CALM1 binding fluorescence, higher = more signal
Note: every record was labeled by where its composite z-score sits among LOW (below -0.1), MEDIUM (-0.1 to below 0.3), HIGH (0.3 or more)

compound=CN(C)C(=O)[C@]1(CCC(=O)OC(C)(C)C)N=C(c2ccc(OCCCO)cc2)O[C@@H]1c1ccccc1 classification=HIGH
compound="O=C1NC(=O)C2C1C=CC(C(O)c1ccc3c(c1)OCO3)N2Nc1ccccn1 (stereo not given)" classification=MEDIUM
compound="O=C1OC[C@@H](c2ccccc2)N2CC(/C=C/c3ccccc3)=CC12 (stereo not given in full)" classification=LOW
compound=CC(C)C(=C=CC[C@@H](O)c1ccccc1OCCO)C[C@@H](O)COCc1ccccc1 classification=MEDIUM
compound=C[N+](C)(C)CCCC[C@@H]1NC(=O)[C@@H]2C[C@H](C(=O)O)[C@H](c3ccc(O)cc3)N2C1=O classification=MEDIUM
compound="O=C1NC(=O)C2C1C=CC(C(O)c1ccc(Br)cc1)N2Nc1ccccn1 (stereo not given)" classification=LOW
compound=COc1ccc([Si](C)(C)[C@H]2[C@H](CC(=O)N3Cc4ccccc4C[C@H]3CO)O[C@@]3(C(=O)N(Cc4cccc(N5CCCCC5=O)c4)c4ccccc43)[C@@H]2C)cc1 classification=LOW
compound=[N-]=[N+]=Nc1ccccc1[C@H]1OC(c2ccc(OCCCO)cc2)=N[C@@]1(CCS(=O)(=O)c1ccccc1)C(=O)N1CCCCC1 classification=HIGH
compound=[N-]=[N+]=NCc1ccccc1C[C@@]1(C(=O)NCCN2CCOCC2)N=C(c2ccc(OCCCO)cc2)O[C@@H]1c1ccccc1N=[N+]=[N-] classification=HIGH
compound=C=C(/C=C/CNS(=O)(=O)c1ccc(C)cc1)[C@H](O)[C@H]1CCCN1S(=O)(=O)c1ccccc1[N+](=O)[O-] classification=LOW
